B1: TMEM175 (parent)
chain: SCTIIFLASIFQLAMWTTALLHQA

Variants of: B1
Assay: protein stability index of a GFP-peptide fusion (GPS, HEK-293T) (PSI 1-6); higher = more stable;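 also: lentivirally expressed fusions sorted by FACS into six bins by GFP to DsRed ratio, PSI derived from sequencing read proportions per bin multiplied by bin number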
Details: c terminus: a fixed tail appended
Each record here notes measured protein stability index.
Form rule: numeric answer, no unit written next to it.

Using the record for `A19H` , state its measured protein stability index.
1.58

Using the record for `S9E` , state its measured protein stability index.
4.07

Using the record for `F6N` , state its measured protein stability index.
2.86

Others:
Using the record for `S1C` , state its measured protein stability index.
3.31

Using the record for `I5V` , state its measured protein stability index.
1.82

Using the record for `T17F` , state its measured protein stability index.
1.74

Using the record for `C2P` , state its measured protein stability index.
1.95

Using the record for `A8P` , state its measured protein stability index.
2.84

Using the record for `T17S` , state its measured protein stability index.
2.31

Using the record for `F6E` , state its measured protein stability index.
2.76

Using the record for `A14C` , state its measured protein stability index.
3.07

Using the record for `H22P` , state its measured protein stability index.
3

Using the record for `T3M` , state its measured protein stability index.
2.56

Using the record for `S9P` , state its measured protein stability index.
2.31

Using the record for `Q23V` , state its measured protein stability index.
3.24

Using the record for `W16Q` , state its measured protein stability index.
1.12

Using the record for `M15T` , state its measured protein stability index.
3.17

Using the record for `T17D` , state its measured protein stability index.
3.83

These data points were gathered from the supplement of paper PMC10567573.
